Where do these numbers come from? They come from paper PMC9227944.

Method Notes: physchem
Settings: organic solvent or mixture, thermodynamic from solid, Solubility, mg/mL in 80/20 Ethanol/Water
Endpoint: solubility (µg/mL)
One number for each entry, in µg/mL.

Request: Consider the compound CC(C)C[C@H](N)C(=O)O and give its measured solubility.
Response: 1700

----------
Method Notes: Equilibrium solubility of API and excipients in spray solvents (TGA of saturated supernatant)
Settings: 90/10 methanol/water by weight, organic solvent or mixture, thermodynamic from solid, Solubility, mg/mL in 90/10 Methanol/Water, 90/10 methanol/water by mass
Endpoint: solubility (mg/mL)
Numbers only, in mg/mL.

Request: Consider the molecule C#Cc1cccc(Nc2ncnc3cc(OCCOC)c(OCCOC)cc23)c1 and give its measured solubility.
Response: 25
